Experiment: probe aShh binding to arrayed compounds – biochemical, biotinylated probe, 635/667 nm fluorescence, primary screen (AID 1114);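 further: probe is biotin-labelled aShh protein from a stem cell growth factor screen; measures binding of labelled protein to compounds printed on the slide; score merges feature fluorescence at 667 nm with signal-to-noise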
Conditions: small-molecule microarray, higher = more signal
composite z-score values by entry

molecule	composite z-score
COC(=O)[C@@]1(Cc2ccc(OC)cc2)[C@H]2c3cc(C(=O)N4CCCC4)n(Cc4ccc(C)o4)c3C[C@H]2CN1C(=O)c1ccccc1	0.444
NC(=O)NCC#Cc1ccc2c(c1)[C@]1(C(=O)N2)[C@H](c2ccc(OCCO)cc2)N2[C@H](c3ccccc3)[C@H](c3ccccc3)OC(=O)[C@H]2[C@@H]1C(=O)N1CCCCCCC1	0.565
C=CCC(OC(C)=O)[C@@H]1[C@@H](N(Cc2cc3ccccc3o2)C(=O)Cc2ccc(OC)cc2)c2cc(OCCCO)ccc2N1C(=O)c1ccc(-c2ccccc2)cc1 (some centres not stated)	-0.147
CC1=C2[C@@H](CCc3ccccc3)OB(O)C[C@@H]2[C@@H]2C(=O)C=CC(=O)[C@@H]2C1	-0.214
COc1cc(C(O)C2C=CC3C(=O)NC(=O)C3N2Nc2ccc(Cl)cc2Cl)cc(OC)c1OC (configuration not stated)	-0.0243
Cc1ccc(S[C@]2(C(=O)NCc3ccccc3)CC(=O)N(C3Cc4ccccc4C3)[C@@H]2c2ccc(CO)cc2I)cc1	-0.364
COCC(=C=CC[C@@H](O)c1ccccc1OCCO)C[C@@H](O)COCc1ccccc1	0.536
